assay: Rotorod toxicity test (Tox), mice; assay type: in vivo, male Carworth Farms No. 1 mice; conditions: mouse, in vivo, po
endpointName: TD50 (mg/kg)
Give bare numbers, in mg/kg.

Input line: Recorded TD50 of Cc1cc[n+]([O-])cc1Oc1ccccc1 [4-METHYL-3-PHENOXYPYRIDINE-1-OXIDE, 4-methyl-3-phenoxypyridine-1-oxide] , please.
Output line: 296

====

experiment: Rotorod toxicity test (Tox), rats; type: in vivo; settings: rat, in vivo, po
endpointName: TD50 (mg/kg)
Answers are plain numbers, in mg/kg.

Input line: Recorded TD50 of Cc1cc[n+]([O-])cc1Oc1ccccc1 [4-METHYL-3-PHENOXYPYRIDINE-1-OXIDE, 4-methyl-3-phenoxypyridine-1-oxide] , please.
Output line: 76.1
